tested on: J774.A1; assay: Cytotoxic activity against mouse J774A1 cells after 72 hrs by MTT assay; format: cell-based; settings: J774.A1, 72 h
Note to self: use t only for IC50 readings below 9 µM; a reading exactly at 9 µM still gets f.

N=C(N)c1ccc(OCCCCCOc2ccc(C(=N)N)cc2)cc1 | t
CC1(Cc2ccccc2)CC(S(=O)(=O)c2ccc([N+](=O)[O-])cc2)=C(c2ccc(/C(N)=N/O)cc2)O1 (stereo unspecified) | f
CC1(Cc2ccccc2)CC(S(=O)(=O)c2ccc(/C(N)=N\O)cc2)=C(c2ccc(Cl)cc2)O1 (stereo unspecified) | t
CC1(Cc2ccccc2)CC(S(=O)(=O)c2ccc(C(F)(F)F)cc2)=C(c2ccc(/C(N)=N/O)cc2)O1 (stereo unspecified) | f
CC1(Cc2ccccc2)CC(S(=O)(=O)c2ccc(Cl)cc2)=C(c2ccc(/C(N)=N/O)cc2)O1 (stereo unspecified) | f
CC1(Cc2ccccc2)CC(S(=O)(=O)c2ccc(/C(N)=N\O)cc2)=C(c2ccc([N+](=O)[O-])cc2)O1 (stereo unspecified) | f

is_below(IC50, 9 µM) for CC1(Cc2ccccc2)CC(S(=O)(=O)c2ccc(/C(N)=N\O)cc2)=C(c2ccc(C(F)(F)F)cc2)O1 (stereo unspecified) ?
f

Determine whether this molecule shows IC50 lower than 9 µM (ties excluded): C[C@@H]1[C@H](O)[C@@H](C)/C=C/C=C/C=C/C=C/C=C/C=C/C=C/[C@H](O[C@@H]2O[C@H](C)[C@@H](O)[C@H](N)[C@@H]2O)C[C@@H]2O[C@](O)(C[C@@H](O)C[C@@H](O)[C@H](O)CC[C@@H](O)C[C@@H](O)CC(=O)O[C@H]1C)C[C@H](O)[C@H]2C(=O)O
t

Does this molecule meet the criterion IC50 < 9 µM? CC1(Cc2ccccc2)CC(S(=O)(=O)c2ccc(/C(N)=N\O)cc2)=C(c2ccc(I)cc2)O1 (stereo unspecified)
t

Please state whether IC50 is below 9 µM for CC1(Cc2ccccc2)CC(S(=O)(=O)c2ccc(F)cc2)=C(c2ccc(/C(N)=N/O)cc2)O1 (stereo unspecified)
f

Consider CC1(Cc2ccccc2)CC(S(=O)(=O)c2ccc(/C(N)=N\O)cc2)=C(c2ccc(Br)cc2)O1 (stereo unspecified) . Does its IC50 lie strictly below 9 µM?
f

Threshold test, IC50 < 9 µM: CC1(Cc2ccccc2)CC(S(=O)(=O)c2ccc(I)cc2)=C(c2ccc(/C(N)=N/O)cc2)O1 (stereo unspecified)
f

---

assay: Selectivity index, ratio of IC50 for mouse J774A1 cells to IC50 for Leishmania donovani MHOM/IN/OO/DEVI promastigote; assay type: toxicity, cell-based, J774.A1; conditions: read-out: Ratio IC50
Quantity: selectivity ratio
Numbers only.

CC1(Cc2ccccc2)CC(S(=O)(=O)c2ccc(F)cc2)=C(c2ccc(/C(N)=N/O)cc2)O1 (stereo not given) | 6.37
CC1(Cc2ccccc2)CC(S(=O)(=O)c2ccc(I)cc2)=C(c2ccc(/C(N)=N/O)cc2)O1 (stereo not given) | 1.72
CC1(Cc2ccccc2)CC(S(=O)(=O)c2ccc(/C(N)=N\O)cc2)=C(c2ccc(I)cc2)O1 (stereo not given) | 1.22
CC1(Cc2ccccc2)CC(S(=O)(=O)c2ccc(C(F)(F)F)cc2)=C(c2ccc(/C(N)=N/O)cc2)O1 (stereo not given) | 3.87
CC1(Cc2ccccc2)CC(S(=O)(=O)c2ccc(/C(N)=N\O)cc2)=C(c2ccc(Cl)cc2)O1 (stereo not given) | 0.71

Hello, I would appreciate it if you could give selectivity ratio for each entry below.
1. CC1(Cc2ccccc2)CC(S(=O)(=O)c2ccc(/C(N)=N\O)cc2)=C(c2ccc(Br)cc2)O1 (stereo not given)
2. C[C@@H]1[C@H](O)[C@@H](C)/C=C/C=C/C=C/C=C/C=C/C=C/C=C/[C@H](O[C@@H]2O[C@H](C)[C@@H](O)[C@H](N)[C@@H]2O)C[C@@H]2O[C@](O)(C[C@@H](O)C[C@@H](O)[C@H](O)CC[C@@H](O)C[C@@H](O)CC(=O)O[C@H]1C)C[C@H](O)[C@H]2C(=O)O
3. CC1(Cc2ccccc2)CC(S(=O)(=O)c2ccc(/C(N)=N\O)cc2)=C(c2ccc([N+](=O)[O-])cc2)O1 (stereo not given)
4. COc1ccc(S(=O)(=O)C2=C(c3ccc(/C(N)=N/O)cc3)OC(C)(Cc3ccccc3)C2)cc1 (stereo not given)
5. N=C(N)c1ccc(OCCCCCOc2ccc(C(=N)N)cc2)cc1
6. CC1(Cc2ccccc2)CC(S(=O)(=O)c2ccc(/C(N)=N\O)cc2)=C(c2ccc(C(F)(F)F)cc2)O1 (stereo not given)

[1.09, 4.08, 0.98, 1.21, 0.16, 1.4]

Hey, quick one: what's selectivity ratio for each of these?
1. CC1(Cc2ccccc2)CC(S(=O)(=O)c2ccc(/C(N)=N\O)cc2)=C(c2ccc(F)cc2)O1 (stereo not given)
2. CC1(Cc2ccccc2)CC(S(=O)(=O)c2ccc(Cl)cc2)=C(c2ccc(/C(N)=N/O)cc2)O1 (stereo not given)
3. CC1(Cc2ccccc2)CC(S(=O)(=O)c2ccc(Br)cc2)=C(c2ccc(/C(N)=N/O)cc2)O1 (stereo not given)
4. CC1(Cc2ccccc2)CC(S(=O)(=O)c2ccc([N+](=O)[O-])cc2)=C(c2ccc(/C(N)=N/O)cc2)O1 (stereo not given)

1: 1.18; 2: 3.71; 3: 3.85; 4: 2.61

---

test system: J774.A1; test: Cytotoxic activity against mouse J774A1 cells after 72 hrs by MTT assay; format: cell-based; conditions: J774.A1, 72 h
I'd be grateful if you could share measured pIC50 for these entries.
Give bare numbers, as −log10 of the molar value.

Would you please look over these solved cases?
COc1ccc(S(=O)(=O)C2=C(c3ccc(/C(N)=N/O)cc3)OC(C)(Cc3ccccc3)C2)cc1 (centres undefined) | 5.04
CC1(Cc2ccccc2)CC(S(=O)(=O)c2ccc(Br)cc2)=C(c2ccc(/C(N)=N/O)cc2)O1 (centres undefined) | 4.70
CC1(Cc2ccccc2)CC(S(=O)(=O)c2ccc(/C(N)=N\O)cc2)=C(c2ccc(F)cc2)O1 (centres undefined) | 4.44

// below: pIC50 requested for another compound
Look up pIC50 of COc1cccc2c1C(=O)c1c(O)c3c(c(O)c1C2=O)C[C@@](O)(C(=O)CO)C[C@@H]3O[C@H]1C[C@H](N)[C@H](O)[C@H](C)O1 [DOXORUBICIN] and report it.
7.70
